# Test system: primary rat microglia
# CONDITION NOTES: rat
Structures can show the parent of a compound that is named as a salt.
MEASURED ENDPOINT: LPS % cell toxicity (%)
Express your answer in %, writing the number without its unit.

Here's what some known entries look like.
- MOLECULE: "CCOC(=O)OC(C)OC(=O)[C@@H]1N2C(=O)[C@@H](NC(=O)[C@H](N)c3ccccc3)[C@H]2SC1(C)C (stereo partly shown) [Bacampicillin Hydrochloride]"
  TARGET DESC: "primary rat microglia"
  MEASURED ENDPOINT: "LPS % cell toxicity"
  VALUE: 0
- MOLECULE: "Cc1nnc2n1-c1ccc(Cl)cc1C(c1ccccc1)=NC2"
  TARGET DESC: "primary rat microglia"
  MEASURED ENDPOINT: "LPS % cell toxicity"
  VALUE: 0
- MOLECULE: "O=C([O-])[C@H](O)[C@@H](O)[C@H](O)[C@H](O)CO.[Na+] [Sodium Gluconate]"
  TARGET DESC: "primary rat microglia"
  MEASURED ENDPOINT: "LPS % cell toxicity"
  VALUE: 0
- MOLECULE: "CN1CCN(C(=O)O[C@H]2c3nccnc3C(=O)N2c2ccc(Cl)cn2)CC1"
  TARGET DESC: "primary rat microglia"
  MEASURED ENDPOINT: "LPS % cell toxicity"
  VALUE: 0
- MOLECULE: "CCC[C@H](N[C@@H](C)C(=O)N1[C@H](C(=O)O)C[C@@H]2CCCC[C@@H]21)C(=O)OCC"
  TARGET DESC: "primary rat microglia"
  MEASURED ENDPOINT: "LPS % cell toxicity"
  VALUE: 0
- MOLECULE: "CCCCCCCCCCCCCCCC(=O)OC[C@H](O)[C@H]1OC(=O)C(O)=C1O [Ascorbyl Palmitate]"
  TARGET DESC: "primary rat microglia"
  MEASURED ENDPOINT: "LPS % cell toxicity"
  VALUE: 0

# input Give the measured LPS % cell toxicity of OC1(c2ccc(Cl)c(C(F)(F)F)c2)CCN(CCCC(c2ccc(F)cc2)c2ccc(F)cc2)CC1 .
# output 0

# input Try the molecule OC(c1cc(C(F)(F)F)nc2c(C(F)(F)F)cccc12)C1CCCCN1 (stereo not shown)
# output 0

* * *

# Tested on: fibrin-induced microglia activation
# TEST NAME: Image-based assay of fibrin-induced microglia activation (HTS and dose response)
# Type: cell-based, rat
# CONDITION NOTES: Rattus norvegicus, Microglia, primary microglia HTS, fibrin stimulation, compounds at 10 μM; read-out: Fibrin % inhibition
Where a name gives a salt, the structure may show the parent alone.
Overview of reported inhibition at 10 µM across a group of molecules:
Answer in %, number only, no unit symbol.

Answered examples (4):
- MOLECULE: "CC(C)CN(C[C@@H](O)[C@H](Cc1ccccc1)NC(=O)O[C@H]1CCOC1)S(=O)(=O)c1ccc(N)cc1"
  READING UNIT: "%"
  VALUE: -10
- MOLECULE: "c1ccc(CN(CC2=NCCN2)c2ccccc2)cc1"
  READING UNIT: "%"
  VALUE: -2
- MOLECULE: "Cc1ccc(-c2ncc(Cl)cc2-c2ccc(S(C)(=O)=O)cc2)cn1"
  READING UNIT: "%"
  VALUE: 15
- MOLECULE: "CCOc1ccc(Cc2nccc3cc(OCC)c(OCC)cc23)cc1OCC [Ethaverine Hydrochloride]"
  READING UNIT: "%"
  VALUE: 41

# input // query inhibition at 10 µM value for entry CCN1C(=O)NC(c2ccccc2)C1=O (stereo not shown)
# output -36

# input How about this molecule: O=C(O[C@@H]1C[C@@H]2C[C@H]3C[C@H](C1)N2CC3=O)c1c[nH]c2ccccc12
# output -19

# input // next record CCC(=O)O[C@H]1[C@H](O[C@@H]2[C@@H](C)[C@H](O[C@H]3C[C@@](C)(OC)[C@@H](O)[C@H](C)O3)[C@@H](C)C(=O)O[C@H](CC)[C@@](C)(O)[C@H](O)[C@@H](C)C(=O)[C@H](C)C[C@@]2(C)O)O[C@H](C)C[C@@H]1N(C)C [Erythromycin Propionate]
# output 23

# input What do you have for Cc1c(OCC(F)(F)F)ccnc1C[S@@+]([O-])c1nc2ccccc2[nH]1 ?
# output -23

# input Note, next up: C[C@H]1c2cccc(O)c2C(=O)C2=C(O)[C@]3(O)C(=O)C(C(N)=O)=C(O)[C@@H](N(C)C)[C@@H]3[C@@H](O)[C@@H]21
# output -19

# input Next: CC(=O)Nc1c(I)cc(I)c(C(=O)O)c1I
# output 14

# input Same for CC(=O)c1ccc(S(=O)(=O)NC(=O)NC2CCCCC2)cc1 [Acetohexamide]
# output 12

# input Now the same for COc1ccc(-c2cc(=O)c3c(O)cc(O[C@@H]4O[C@H](CO[C@@H]5O[C@@H](C)[C@H](O)[C@@H](O)[C@H]5O)[C@@H](O)[C@H](O)[C@H]4O)cc3o2)cc1O
# output -12
